Experiment: Pharmacokinetics in beagle dogs (single doses)
Type: in vivo
Conditions: beagle, dog, plasma, po; single dose <3 mg/kg; read-out: oral bioavailability
REPORTED METRIC: bioavailability

[Q] Please report the recorded bioavailability for Cn1cc(S(=O)(=O)[C@@](C)(F)C2CCN(C(=O)Nc3ccon3)CC2)c(C(F)F)n1 .
[A] ~100%

---

Assay: Single ascending oral dose study in healthy volunteers: plasma pharmacokinetics
Format: in vivo, human
Settings: human, plasma, oral, 175 mg; read-out: Half-Life Lambda Z, Median (converted)
REPORTED METRIC: half-life (h)
Give bare numbers, in h.

[Q] Look up half-life: Cn1cc(S(=O)(=O)[C@@](C)(F)C2CCN(C(=O)Nc3ccon3)CC2)c(C(F)F)n1
[A] 16.4
